test system: Streptococcus mutans; assay: Toxicity against Streptococcus mutans assessed as inhibition of microbial growth; type: organism-based; settings: in vitro
measurement_name: MIC

For orientation, consider the following solved cases.
compound="C[C@@H]1O[C@@H](OC[C@H]2O[C@@H](Oc3c(-c4ccc(O)cc4)oc4cc(O)cc(O)c4c3=O)[C@H](O)[C@@H](O)[C@@H]2O)[C@H](O)[C@H](O)[C@H]1O [NICOTIFLOROSIDE]" measurement_name=MIC result="> 336.4 µM"
compound="COc1cc(-c2oc3cc(O)cc(O)c3c(=O)c2O[C@@H]2O[C@H](CO[C@@H]3O[C@@H](C)[C@H](O)[C@@H](O)[C@H]3O)[C@@H](O)[C@H](O)[C@H]2O)ccc1O [NARCISSIN]" measurement_name=MIC result="> 320.2 µM"
compound="Cc1occc(=O)c1O[C@@H]1O[C@H](COC(=O)CC(C)(O)CC(=O)O)[C@@H](OC(=O)/C=C\\c2ccc(O)cc2)[C@H](O)[C@H]1O (stereo not given in full)" measurement_name=MIC result="> 345.9 µM"

Field MIC (system: Streptococcus mutans) for entry COc1cc(/C=C/C(=O)CC(=O)/C=C/c2ccc(O)c(OC)c2)ccc1O = > 542.9 µM

# lookup: Cc1occc(=O)c1O[C@@H]1O[C@H](COC(=O)CC(C)(O)CC(=O)O)[C@@H](OC(=O)/C=C/c2ccc(O)cc2)[C@H](O)[C@H]1O (stereo not given in full) on Streptococcus mutans, MIC = > 345.9 µM

Entry source: ChEMBL document CHEMBL3400100
